Reference source for all entries: patent US9273058B2

STUDY_TARGET: CK1δ (Homo sapiens)
Sequence (P48730 whole entry): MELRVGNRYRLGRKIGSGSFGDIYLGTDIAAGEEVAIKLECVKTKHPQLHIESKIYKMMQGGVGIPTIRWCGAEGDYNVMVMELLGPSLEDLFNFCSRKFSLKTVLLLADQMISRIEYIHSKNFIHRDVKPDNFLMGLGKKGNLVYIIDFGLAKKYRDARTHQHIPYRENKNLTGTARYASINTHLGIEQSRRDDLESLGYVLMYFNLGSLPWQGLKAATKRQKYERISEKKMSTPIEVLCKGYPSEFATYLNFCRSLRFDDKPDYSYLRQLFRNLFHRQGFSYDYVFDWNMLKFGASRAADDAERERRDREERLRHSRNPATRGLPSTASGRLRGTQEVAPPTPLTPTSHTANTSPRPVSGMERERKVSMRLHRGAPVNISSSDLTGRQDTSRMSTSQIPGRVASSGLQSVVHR
TEST_PROTOCOL: CK1δ kinase assay (Caliper LabChip electrophoretic separation of fluoresceinated peptide substrate and product)
Assay type: biochemical
COND: 200 pM CK1δ, 50 μM ATP, 1.5 μM peptide, 22 hours at room temperature; read-out: CK1δ
# note: exactly 70 nM is not below, so it is condition not met; use condition met for IC50 strictly under it

>>> df
                                   molecule   class_assignment
0  CC(C)(C)NC(=O)N1Cc2c(C(N)=O)c(-c3ccc(F)c(Cl)c3)nn2[C@H]2COC[C@H]21 [Compound 352]      condition met
1  CC(C)(C)NC(=O)N1CCn2nc(-c3cccc(Cl)c3Cl)c(C(N)=O)c2C1 [Compound 130]  condition not met
2  CC(C)(C)NC(=O)N1CCn2nc(-c3cccc(C(F)(F)F)c3)c(C(N)=O)c2C1 [Compound 110]  condition not met
3  CC1(NC(=O)N2Cc3c(C(N)=O)c(-c4ccc(F)c(Cl)c4)nn3CC2C2CC2)CC(F)(F)C1 (single isomer, unassigned) [Compound 349]      condition met
4  NC(=O)c1c(-c2ccc(F)c(Cl)c2)nn2c1CN(C(=O)NC1CC(F)(F)C1)CC2 [Compound 291]      condition met
5  CC(C)(C)NC(=O)N1CCn2nc(-c3cncnc3)c(C(N)=O)c2C1 [Compound 142]  condition not met
